Hey, just so you know, these numbers are from the supplement of paper PMC5998384.

# System: HeLa Kyoto;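 note: synchronized HeLa Kyoto cells, proteins quantified by TMT10plex mass spectrometry, three biological replicates, mitosis taken 0.5 h after nocodazole release, G1/S directly after double thymidine block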
# protocol notes: thermal stability score vs G1/S (z-score of summed log2 fold changes over temperatures); higher = more thermally stable than in G1/S
# settings: cell cycle stage: mitosis
Reported thermal stability score values for the following sequences.
property measured: thermal stability score

sequence text	system	property measured	test result
MIKAILIFNNHGKPRLSKFYQPYSEDTQQQIIRETFHLVSKRDENVCNFLEGGLLIGGSDNKLIYRHYATLYFVFCVDSSESELGILDLIQVFVETLDKCFENVCELDLIFHVDKVHNILAEMVMGGMVLETNMNEIVTQIDAQNKLEKSEAGLAGAPARAVSAVKNMNLPEIPRNINIGDISIKVPNLPSFK [AP3S1]	HeLa Kyoto	thermal stability score	-0.378
MASIWVGHRGTVRDYPDFSPSVDAEAIQKAIRGIGTDEKMLISILTERSNAQRQLIVKEYQAAYGKELKDDLKGDLSGHFEHLMVALVTPPAVFDAKQLKKSMKGAGTNEDALIEILTTRTSRQMKDISQAYYTVYKKSLGDDISSETSGDFRKALLTLADGRRDESLKVDEHLAKQDAQILYKAGENRWGTDEDKFTEILCLRSFPQLKLTFDEYRNISQKDIVDSIKGELSGHFEDLLLAIVNCVRNTPAFLAERLHRALKGIGTDEFTLNRIMVSRSEIDLLDIRTEFKKHYGYSLYSAIKSDTSGDYEITLLKICGGDD [ANXA3]	HeLa Kyoto	thermal stability score	-1.21
MEALPLLAATTPDHGRHRRLLLLPLLLFLLPAGAVQGWETEERPRTREEECHFYAGGQVYPGEASRVSVADHSLHLSKAKISKPAPYWEGTAVIDGEFKELKLTDYRGKYLVFFFYPLDFTFVCPTEIIAFGDRLEEFRSINTEVVACSVDSQFTHLAWINTPRRQGGLGPIRIPLLSDLTHQISKDYGVYLEDSGHTLRGLFIIDDKGILRQITLNDLPVGRSVDETLRLVQAFQYTDKHGEVCPAGWKPGSETIIPDPAGKLKYFDKLN [PRDX4]	HeLa Kyoto	thermal stability score	-4.08
MPKRKAAGQGDMRQEPKRRSARLSAMLVPVTPEVKPKRTSSSRKMKTKSDMMEENIDTSAQAVAETKQEAVVEEDYNENAKNGEAKITEAPASEKEIVEVKEENIEDATEKGGEKKEAVAAEVKNEEEDQKEDEEDQNEEKGEAGKEDKDEKGEEDGKEDKNGNEKGEDAKEKEDGKKGEDGKGNGEDGKEKGEDEKEEEDRKETGDGKENEDGKEKGDKKEGKDVKVKEDEKEREDGKEDEGGNEEEAGKEKEDLKEEEEGKEEDEIKEDDGKKEEPQSIV [HMGN5]	HeLa Kyoto	thermal stability score	-5.4
MLSLRVPLAPITDPQQLQLSPLKGLSLVDKENTPPALSGTRVLASKTARRIFQEPTEPKTKAAAPGVEDEPLLRENPRRFVIFPIEYHDIWQMYKKAEASFWTAEEVDLSKDIQHWESLKPEERYFISHVLAFFAASDGIVNENLVERFSQEVQITEARCFYGFQIAMENIHSEMYSLLIDTYIKDPKEREFLFNAIETMPCVKKKADWALRWIGDKEATYGERVVAFAAVEGIFFSGSFASIFWLKKRGLMPGLTFSNELISRDEGLHCDFACLMFKHLVHKPSEERVREIIINAVRIEQEFLTEALPVKLIGMNCTLMKQYIEFVADRLMLELGFSKVFRVENPFDFMENISLEGKTNFFEKRVGEYQRMGVMSSPTENSFTLDADF [RRM2]	HeLa Kyoto	thermal stability score	-8.23
